# Test system: SREBP-1 and -2 cleavage
# Assay Summary: SREBP activation by metabolites in H1299 or U87 cells (western blot, IF)
# Assay type: cell-based
# Condition Context: in the presence of glucose, without glutamine, 12 hr

{"Compound": "C[C@H](O)C(=O)[O-].[Na+] [lactate, sodium L-lactate]", "Assayed System": "SREBP-1 and -2 cleavage", "SREBP-1 translocation into the nucleus": "failed to do so"}
{"Compound": "O=C([O-])CCC(=O)C(=O)[O-].[Na+].[Na+] [α-KG, α-Ketoglutaric acid sodium salt]", "Assayed System": "SREBP-1 and -2 cleavage", "SREBP-1 translocation into the nucleus": "failed to do so"}
{"Compound": "N[C@@H](CCC(=O)O)C(=O)[O-].O.[Na+] [glutamate]", "Assayed System": "SREBP-1 and -2 cleavage", "SREBP-1 translocation into the nucleus": "failed to do so"}
